# reported inhibition at 2 µM; entries follow
Molecular target: human GPR84 receptor (Homo sapiens, UniProt Q9NQS5)
Construct: host or cells: HEK293, transient transfection
Sequence (Q9NQS5 whole entry): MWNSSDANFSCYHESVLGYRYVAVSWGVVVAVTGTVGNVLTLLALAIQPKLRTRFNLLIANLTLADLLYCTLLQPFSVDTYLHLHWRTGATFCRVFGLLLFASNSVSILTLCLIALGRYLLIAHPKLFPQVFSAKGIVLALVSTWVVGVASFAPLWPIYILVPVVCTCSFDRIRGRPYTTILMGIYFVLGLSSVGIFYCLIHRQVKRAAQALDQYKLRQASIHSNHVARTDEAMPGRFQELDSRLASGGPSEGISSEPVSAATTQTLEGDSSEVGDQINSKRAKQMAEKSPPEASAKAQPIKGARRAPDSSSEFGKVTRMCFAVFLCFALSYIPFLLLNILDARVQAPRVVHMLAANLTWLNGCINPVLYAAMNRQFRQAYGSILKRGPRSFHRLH
Experiment: Gαi biosensor BRET assay in HEK293 cells (antagonism of ZQ-16)
Format: cell-based
Conditions: HEK293, single concentration 2 μM (designated A)
observation-type: inhibition at 2 µM

compound | endpoint-result
FC(F)(F)Cc1cc(C#CC2CC2)cnc1-c1cn(C[C@H]2CCCCO2)nn1 [Compound I-822] | > 75%
CC(C)c1cc(C#CCN2CC(C)(C)C2)cnc1-c1cn(CC2OCC(C)(C)CO2)nn1 [Compound I-727] | > 75%
Cc1cc(C#CC2CC2)ccc1-c1cn(CC23CC(C)(CO2)C3)nn1 [Compound I-556] | ≤ 25%
Cc1cc(C#CCn2ccnn2)cnc1-c1cn(CC2CCCCO2)nn1 (centres unmarked) [Compound I-841] | > 75%
Cc1cc(N2CC(C)(CO)C2)c(F)cc1-c1cn(C[C@@H]2CCCCO2)nn1 [Compound I-805] | > 75%
Cc1cc(C#CC2CC2)ccc1-c1cn(Cc2ccn(C)n2)nn1 [Compound I-543] | ≤ 25%
Cc1cc(N2CC3(CCCN3Cc3ccccc3)C2)ccc1-c1cn(CC2CCCCO2)nn1 (centres unmarked) [Compound I-149] | 25 to 50%
Cc1c(-c2cn(CC3CCCCO3)nn2)ccc(C#CC2CC2)c1F (centres unmarked) [Compound I-505] | ≤ 25%

----------
Target: human GPR84 receptor (Homo sapiens, UniProt Q9NQS5)
Construct: host or cells: HEK293, transient transfection
Test: Gαi biosensor BRET assay in HEK293 cells (antagonism of ZQ-16)
Type: cell-based
Settings: HEK293, single concentration 2 μM (designated A)

compound | inhibition at 2 µM
Cc1cc(N2CC(C)(C(=O)Nc3ccccc3)C2)ccc1-c1cn(CC2CCCCO2)nn1 (stereo not shown) [Compound I-410] | 25 to 50%
CO[C@H](c1cn(C[C@H]2CCCCO2)nn1)c1cc(C#CC2CC2)ccc1C [Compound I-511] | > 75%
CC(C)Oc1cc(N2CC(C)(C)C2)ccc1-c1cn(CC2CCCCO2)nn1 (stereo not shown) [Compound I-271] | > 75%
Cc1cc(C#CC2CC2)ccc1-c1cn(CC2(C)CCCCO2)nn1 (stereo not shown) [Compound I-554] | > 75%

----------
# reported inhibition at 10 µM; entries follow
Target: human GPR84 receptor (Homo sapiens, UniProt Q9NQS5)
Construct: host or cells: HEK293, transient transfection
Assay: Gαi biosensor BRET assay in HEK293 cells (antagonism of ZQ-16)
Format: cell-based
Details: HEK293, single concentration 10 μM (designated F)
observation-type: inhibition at 10 µM

compound | observation-type | endpoint-result
C(#CC1CC1)c1ccc(-c2cn(CC3OCCCO3)nn2)cc1 | inhibition at 10 µM | 25 to 50%
Cc1c(-c2ccc(C#CC3CC3)cc2)nnn1CC1CCCO1 (centres unmarked) | inhibition at 10 µM | ≤ 25%
CC(C)c1cc(N2CC(C)(C)C2)cnc1-c1cn(CC2CC(C)(C)O2)nn1 (centres unmarked) | inhibition at 10 µM | > 75%
Cc1ccc(C#CC2CC2)cc1-n1nc(CC2CCCO2)oc1=O (centres unmarked) | inhibition at 10 µM | > 75%
Cc1cc(N2CC(C)(CO)C2)c(F)cc1-c1cn(CC2CCCCO2)nn1 (centres unmarked) | inhibition at 10 µM | > 75%

----------
# reported inhibition at 25 µM; entries follow
Target: human GPR84 receptor (Homo sapiens, UniProt Q9NQS5)
Construct: host or cells: HEK293, transient transfection
Assay: Gαi biosensor BRET assay in HEK293 cells (antagonism of ZQ-16)
Type: cell-based
Details: HEK293, single concentration 25 μM (designated I)

compound | target-or-system | inhibition at 25 µM
C(#CC1CC1)c1ccc(-c2cn(CC3CCOCC3)nn2)cc1 | human GPR84 receptor (Homo sapiens, UniProt Q9NQS5) | 25 to 50%
c1ccc(COc2ccc(-c3cn(CC4CCCCO4)nn3)cc2)cc1 (stereo not shown) | human GPR84 receptor (Homo sapiens, UniProt Q9NQS5) | ≤ 25%
C(#CC1CC1)c1ccc(-c2ccn(CC3CCCCO3)n2)cc1 (stereo not shown) | human GPR84 receptor (Homo sapiens, UniProt Q9NQS5) | 25 to 50%
O=S1(=O)CCC(Cn2cc(-c3ccc(C#CC4CC4)cc3)nn2)CC1 | human GPR84 receptor (Homo sapiens, UniProt Q9NQS5) | ≤ 25%
COC(Cn1cc(-c2ccc(C#CC3CC3)cc2C)nn1)c1ccccc1 (stereo not shown) | human GPR84 receptor (Homo sapiens, UniProt Q9NQS5) | ≤ 25%
Cc1ccc(-c2ccc(-c3cn(CC4CCCCO4)nn3)c(C)c2)cn1 (stereo not shown) | human GPR84 receptor (Homo sapiens, UniProt Q9NQS5) | 25 to 50%
Cc1nn(CC2CCCCO2)cc1-c1ccc(C#CC2CC2)cc1 (stereo not shown) | human GPR84 receptor (Homo sapiens, UniProt Q9NQS5) | ≤ 25%
Cc1ccc(-c2cccc(-c3cn(C[C@H]4CCCCO4)nn3)c2)cn1 | human GPR84 receptor (Homo sapiens, UniProt Q9NQS5) | 25 to 50%
Cc1c(C#CC2CC2)cccc1-c1nnn(CC2CCCCO2)n1 (stereo not shown) | human GPR84 receptor (Homo sapiens, UniProt Q9NQS5) | ≤ 25%
C(#CC1CC1)c1ccc(-n2cc(CC3CCOCC3)nn2)cc1 | human GPR84 receptor (Homo sapiens, UniProt Q9NQS5) | ≤ 25%
Cc1ccc(-c2ccc(-c3cn(C[C@H]4CCCO4)nn3)cc2)cn1 | human GPR84 receptor (Homo sapiens, UniProt Q9NQS5) | ≤ 25%
Cc1c(-c2ccc(C#CC3CC3)cc2)nnn1C[C@H]1CCCCO1 | human GPR84 receptor (Homo sapiens, UniProt Q9NQS5) | 50 to 75%
Cc1nn(CC2CCCCO2)cc1-c1cccc(C#CC2CC2)c1 (stereo not shown) | human GPR84 receptor (Homo sapiens, UniProt Q9NQS5) | ≤ 25%
Cc1cc(CN2CCOCC2)ccc1-c1cn(CC2CCCCO2)nn1 (stereo not shown) | human GPR84 receptor (Homo sapiens, UniProt Q9NQS5) | 25 to 50%
C(#CC1CC1)c1ccc(-c2cn(C[C@H]3CCCO3)nn2)cc1 | human GPR84 receptor (Homo sapiens, UniProt Q9NQS5) | 25 to 50%
Cc1ccc(-c2ccc(-c3cn(CC4CCCCO4)nn3)cc2)cn1 (stereo not shown) | human GPR84 receptor (Homo sapiens, UniProt Q9NQS5) | > 75%
Cc1cc(C#CC2CC2)ccc1-c1cn(CC(C)Oc2ccccc2)nn1 (stereo not shown) | human GPR84 receptor (Homo sapiens, UniProt Q9NQS5) | ≤ 25%
Cc1cc(C#CC2CC2)ccc1-c1cnn(CC2CCCCO2)c1 (stereo not shown) | human GPR84 receptor (Homo sapiens, UniProt Q9NQS5) | ≤ 25%
O=c1oc(CC2COCCO2)nn1-c1ccc(C#CC2CC2)cc1 (stereo not shown) | human GPR84 receptor (Homo sapiens, UniProt Q9NQS5) | ≤ 25%
Cc1cc(C#CC2CC2)ccc1-c1cn(CCOCC2CCCCO2)nn1 (stereo not shown) | human GPR84 receptor (Homo sapiens, UniProt Q9NQS5) | 25 to 50%
Cc1ccc(-c2ccc(-c3cn(C[C@H]4COc5ccccc5O4)nn3)cc2)cn1 | human GPR84 receptor (Homo sapiens, UniProt Q9NQS5) | ≤ 25%
CC(C)(C)C#Cc1ccc(-c2cn(CC3CCCCO3)nn2)cc1 (stereo not shown) | human GPR84 receptor (Homo sapiens, UniProt Q9NQS5) | ≤ 25%
Cc1ccc(-c2cccc(-c3nnn(C[C@H]4CCCCO4)n3)c2)cn1 | human GPR84 receptor (Homo sapiens, UniProt Q9NQS5) | 25 to 50%
Cc1cc(C#CC2CC2)ccc1-c1cn(CCOCC2COCCO2)nn1 (stereo not shown) | human GPR84 receptor (Homo sapiens, UniProt Q9NQS5) | 25 to 50%
Cc1ccc(C#CC2CC2)cc1-c1nnn(CC2CCCCO2)n1 (stereo not shown) | human GPR84 receptor (Homo sapiens, UniProt Q9NQS5) | > 75%
Cc1c(-c2ccc(OCc3ccccn3)cc2)nnn1CC1CCCCO1 (stereo not shown) | human GPR84 receptor (Homo sapiens, UniProt Q9NQS5) | 25 to 50%
FC(F)(F)COc1ccc(-c2cn(CC3CCCCO3)nn2)cc1 (stereo not shown) | human GPR84 receptor (Homo sapiens, UniProt Q9NQS5) | ≤ 25%
O=c1oc(CC2CCCCO2)nn1-c1ccc(C#CC2CC2)cc1 (stereo not shown) | human GPR84 receptor (Homo sapiens, UniProt Q9NQS5) | 25 to 50%
CN(C)CC#Cc1ccc(-c2cn(CC3CCCCO3)nn2)cc1 (stereo not shown) | human GPR84 receptor (Homo sapiens, UniProt Q9NQS5) | ≤ 25%
Cc1cc(OCc2ccccc2)ccc1-c1cn(CC2CCCCO2)nn1 (stereo not shown) | human GPR84 receptor (Homo sapiens, UniProt Q9NQS5) | ≤ 25%
C(#CC1CC1)c1ccc(-c2cn(C[C@H]3CCCCO3)nn2)cc1 | human GPR84 receptor (Homo sapiens, UniProt Q9NQS5) | > 75%
Cc1ncn(CC2CCCCO2)c1-c1ccc(C#CC2CC2)cc1 (stereo not shown) | human GPR84 receptor (Homo sapiens, UniProt Q9NQS5) | 25 to 50%
C(#CC1CC1)c1ccc(-c2cn(CCOCC3CCCCO3)nn2)cc1 (stereo not shown) | human GPR84 receptor (Homo sapiens, UniProt Q9NQS5) | 25 to 50%
Cc1cc(N2CC(C)(C)C2)ccc1-c1cn(CC2CCCCO2)nn1 (stereo not shown) | human GPR84 receptor (Homo sapiens, UniProt Q9NQS5) | > 75%
Cc1c(-c2cccc(C#CC3CC3)c2)cnn1CC1CCCCO1 (stereo not shown) | human GPR84 receptor (Homo sapiens, UniProt Q9NQS5) | ≤ 25%
C(#CC1CC1)c1cccc(-c2cnn(CC3CCCCO3)c2)c1 (stereo not shown) | human GPR84 receptor (Homo sapiens, UniProt Q9NQS5) | ≤ 25%
Cc1c(C#CC2CC2)cccc1-c1cn(CC2CCCCO2)nn1 (stereo not shown) | human GPR84 receptor (Homo sapiens, UniProt Q9NQS5) | ≤ 25%
